# target_entity: Urease subunit alpha/Urease subunit beta (Helicobacter pylori (strain ATCC 700392 / 26695) (Campylobacterpylori), UniProt P69996)
# Sequence (P69996 whole entry): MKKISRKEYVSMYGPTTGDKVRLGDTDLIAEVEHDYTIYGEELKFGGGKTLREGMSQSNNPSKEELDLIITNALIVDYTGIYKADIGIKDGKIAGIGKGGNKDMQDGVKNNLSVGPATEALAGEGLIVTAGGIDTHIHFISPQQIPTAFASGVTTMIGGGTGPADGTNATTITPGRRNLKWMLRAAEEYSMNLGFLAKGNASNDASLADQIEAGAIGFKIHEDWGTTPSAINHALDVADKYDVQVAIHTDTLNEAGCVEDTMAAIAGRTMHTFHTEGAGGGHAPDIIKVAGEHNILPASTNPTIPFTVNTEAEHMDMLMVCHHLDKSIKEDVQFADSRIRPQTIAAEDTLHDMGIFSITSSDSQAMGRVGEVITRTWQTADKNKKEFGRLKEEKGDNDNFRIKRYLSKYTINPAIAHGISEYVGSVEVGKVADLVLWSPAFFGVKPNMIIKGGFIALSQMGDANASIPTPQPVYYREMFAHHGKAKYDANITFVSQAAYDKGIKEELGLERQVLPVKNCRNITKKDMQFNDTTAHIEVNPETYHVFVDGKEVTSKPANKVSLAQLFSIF
# Sequence (P14916 whole entry, further chain): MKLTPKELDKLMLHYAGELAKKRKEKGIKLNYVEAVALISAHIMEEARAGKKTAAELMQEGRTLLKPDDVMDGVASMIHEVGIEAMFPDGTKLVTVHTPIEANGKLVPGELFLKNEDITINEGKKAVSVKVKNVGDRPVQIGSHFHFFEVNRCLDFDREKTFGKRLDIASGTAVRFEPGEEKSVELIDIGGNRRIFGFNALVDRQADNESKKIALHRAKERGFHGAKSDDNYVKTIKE
# method_summary: Inhibition of urease in Helicobacter pylori J99 in Brucella broth using urea as substrate preincubated for 2 hrs followed by substrate addition measured after 2 hrs by Berthelot assay
# Type: protein-complex assay
Flag rule - IC50 less than 80 µM flags 1.0; the remaining entries get 0.0.

// below: answered molecules
molecule=O=C(O)CNC(=O)c1ccccc1[Se][Se]c1ccccc1C(=O)NCC(=O)O cat=0.0
molecule=COC(=O)[C@@H](CC(C)C)n1[se]c2ccccc2c1=O cat=1.0
molecule=COC(=O)CNC(=O)c1ccccc1[Se][Se]c1ccccc1C(=O)NCC(=O)OC cat=0.0
molecule=C[C@H](c1ccccc1)n1[se]c2ccccc2c1=O cat=1.0
molecule=COC(=O)CCCNC(=O)c1ccccc1[Se][Se]c1ccccc1C(=O)NCCCC(=O)OC cat=1.0

Input CC(=O)NO [ACETOHYDROXAMIC ACID] ; condition: IC50 strictly below 80 µM. Does it hold?
0.0

Try the molecule O=C(Nc1ccccc1)c1ccccc1[Se][Se]c1ccccc1C(=O)Nc1ccccc1 [EBSELEN DISELENIDE]
1.0

----------
# target_entity: Urease subunit alpha/Urease subunit beta (Helicobacter pylori (strain ATCC 700392 / 26695) (Campylobacterpylori), UniProt P69996)
# method_summary: Inhibition of recombinant Helicobacter pylori urease expressed in Escherichia coli rosetta DE3 after 120 mins by Berthelot colorimetric analysis
pKi: −log10 of the molar value.
Response key: true means pKi >= 6; false means pKi < 6.

// below: answered molecules
molecule="CC(=O)NO [ACETOHYDROXAMIC ACID]" cat=false
molecule="CCC(CO)NC(=O)c1ccccc1[Se][Se]c1ccccc1C(=O)NC(CC)CO (stereo unspecified)" cat=false
molecule="O=C(Nc1ccccc1)c1ccccc1[Se][Se]c1ccccc1C(=O)Nc1ccccc1 [EBSELEN DISELENIDE]" cat=true
molecule="O=c1c2ccccc2[se]n1-c1ccccc1 [EBSELEN]" cat=true

Attention now shifts to the item below.
Dear colleague, could you confirm whether COC(=O)CCCNC(=O)c1ccccc1[Se][Se]c1ccccc1C(=O)NCCCC(=O)OC has pKi at or above 6?
true

----------
Reported Ki values follow for various compounds
# method_summary: Steady state inhibition of Sporosarcina pasteurii CCM 2056 urease using urea as substrate assessed as inhibition constant for final enzyme conformation-inhibitor complex by measuring ammonia levels after 120 mins by phenol-hypochlorite method
Write down the numeric answer in nM and omit the unit.

// known answers, use as guide
compound=COC(=O)CCCNC(=O)c1ccccc1[Se][Se]c1ccccc1C(=O)NCCCC(=O)OC property_measured=Ki test_value=3.48
compound=CC(C)[C@@H](C(=O)O)n1[se]c2ccccc2c1=O property_measured=Ki test_value=1010

Then there is this compound:
Ki lookup needed for CC(=O)NO [ACETOHYDROXAMIC ACID] , thanks.
3300

----------
Reported pKi values follow for various compounds
# method_summary: Steady state inhibition of Sporosarcina pasteurii CCM 2056 urease using urea as substrate assessed as inhibition constant for final enzyme conformation-inhibitor complex by measuring ammonia levels after 120 mins by phenol-hypochlorite method
Formally, pKi is defined as -log10 of the concentration c, with c in mol/L.

pKi lookup needed for O=C(O)CNC(=O)c1ccccc1[Se][Se]c1ccccc1C(=O)NCC(=O)O , thanks.
4.99

Try the compound CCC(C)[C@@H](C(=O)OC)n1[se]c2ccccc2c1=O (stereo not given in full)
6.78

Try the compound COC(=O)CNC(=O)c1ccccc1[Se][Se]c1ccccc1C(=O)NCC(=O)OC
8.18

Try the compound O=c1c2ccccc2[se]n1[C@H](CO)c1ccccc1
7.92

Try the compound O=C(O)CCCNC(=O)c1ccccc1[Se][Se]c1ccccc1C(=O)NCCCC(=O)O
4.82

Try the compound O=C(O)C[C@@H](C(=O)O)n1[se]c2ccccc2c1=O
5.62

Try the compound O=C(O)CCCn1[se]c2ccccc2c1=O
6.09

Try the compound O=C(Nc1ccccc1)c1ccccc1[Se][Se]c1ccccc1C(=O)Nc1ccccc1 [EBSELEN DISELENIDE]
8.03

Try the compound C[C@H](c1ccccc1)n1[se]c2ccccc2c1=O
6.86

Try the compound O=C(Oc1ccccc1)c1ccccc1[Se][Se]c1ccccc1C(=O)Oc1ccccc1
6.28
